test: in vivo; settings: Wistar Han, rat, iv

compoundStructureString: CC(=O)N[C@H]1CSCCC(=O)N2CN3CN(C2)C(=O)CCSC[C@H](NC(=O)[C@H](CC(N)=O)NC(=O)[C@H](CCC(=O)O)NC(=O)[C@H](CC(C)C)NC(=O)[C@H](Cc2c[nH]c4ccccc24)NC(=O)[C@H](Cc2c[nH]cn2)NC1=O)C(=O)N[C@@H](Cc1c[nH]c2ccccc12)C(=O)N[C@@H](CCCNC(=N)N)C(=O)NCC(=O)N[C@@H](Cc1ccccc1)C(=O)N[C@H](C(N)=O)CSCCC3=O
unitAnnotation: mL/min/kg
clearance: 6.3

====

assay: in vivo; settings: Wistar Han, rat, iv
# clearance values compiled below

compoundStructureString: CC(=O)N[C@H]1CSCCC(=O)N2CN3CN(C2)C(=O)CCSC[C@H](NC(=O)[C@H](CC(=O)O)NC(=O)[C@H](CCC(N)=O)NC(=O)[C@H](CC(C)(C)C)NC(=O)[C@H](Cc2cccc4ccccc24)NC(=O)[C@H](C)N(C)C1=O)C(=O)N[C@@H](Cc1cn(C)c2ccccc12)C(=O)N[C@@H](CCCNC(=N)N(C)C)C(=O)NCC(=O)N[C@@H](Cc1ccc(F)cc1)C(=O)N[C@H](C(=O)N[C@@H](C)C(N)=O)CSCCC3=O
clearance: 6.4 mL/min/kg
--
compoundStructureString: CC(=O)N[C@H]1CSCCC(=O)N2CN3CN(C2)C(=O)CCSC[C@H](NC(=O)[C@H](CC(=O)O)NC(=O)[C@H](CCC(=O)O)NC(=O)[C@H](CC(C)C)NC(=O)[C@H](Cc2cccc4ccccc24)NC(=O)[C@H](CCC(N)=O)NC1=O)C(=O)N[C@@H](Cc1c[nH]c2ccccc12)C(=O)N[C@@H](CCCNC(=N)N(C)C)C(=O)NCC(=O)N[C@@H](Cc1ccc(F)cc1)C(=O)N[C@H](C(=O)N[C@@H](C)C(N)=O)CSCCC3=O
clearance: 23 mL/min/kg
--
compoundStructureString: CC(=O)N[C@H]1CSCCC(=O)N2CN3CN(C2)C(=O)CCSC[C@H](NC(=O)[C@H](CC(=O)O)NC(=O)[C@H](CCC(=O)O)NC(=O)[C@H](CC(C)C)NC(=O)[C@H](Cc2c[nH]c4ccccc24)NC(=O)[C@H](CCC(N)=O)NC1=O)C(=O)N[C@@H](Cc1c[nH]c2ccccc12)C(=O)N[C@@H](CCCNC(=N)N)C(=O)NCC(=O)N[C@@H](Cc1ccc(F)cc1)C(=O)N[C@H](C(=O)N[C@@H](C)C(N)=O)CSCCC3=O
clearance: 42 mL/min/kg

====

# half-life values compiled below
experiment: in vivo; conditions: Wistar Han, rat, iv

compoundStructureString: CC(=O)N[C@H]1CSCCC(=O)N2CN3CN(C2)C(=O)CCSC[C@H](NC(=O)[C@H](CC(=O)O)NC(=O)[C@H](CCC(=O)O)NC(=O)[C@H](CC(C)C)NC(=O)[C@H](Cc2c[nH]c4ccccc24)NC(=O)[C@H](CCC(N)=O)NC1=O)C(=O)N[C@@H](Cc1c[nH]c2ccccc12)C(=O)N[C@@H](CCCNC(=N)N)C(=O)NCC(=O)N[C@@H](Cc1ccc(F)cc1)C(=O)N[C@H](C(=O)N[C@@H](C)C(N)=O)CSCCC3=O
half-life: 5 min
//
compoundStructureString: CC(=O)N[C@H]1CSCCC(=O)N2CN3CN(C2)C(=O)CCSC[C@@H]2NC(=O)[C@H](CC(=O)O)NC(=O)[C@H](CCC(=O)O)NC(=O)[C@H](CC(C)C)NC(=O)[C@H](CC/C=C/CC[C@H](NC(=O)[C@H](Cc4c[nH]c5ccccc45)NC2=O)C(=O)NCC(=O)N[C@@H](Cc2ccc(F)cc2)C(=O)N[C@H](C(N)=O)CSCCC3=O)NC(=O)[C@H](CCC(N)=O)NC1=O
half-life: 3 min

====

experiment: in vitro; details: Wistar Han, rat, lung S9 fraction
# half-life at 1 h, 10 µM values compiled below
propertyLabel: half-life at 1 h, 10 µM (h)

compoundStructureString: CC(=O)N[C@H]1CSCCC(=O)N2CN3CN(C2)C(=O)CCSC[C@H](NC(=O)[C@H](CC(=O)O)NC(=O)[C@H](CCC(N)=O)NC(=O)[C@H](CC(C)(C)C)NC(=O)[C@H](Cc2cn(C)c4ccccc24)NC(=O)[C@H](CCC(N)=O)NC1=O)C(=O)N[C@@H](Cc1cn(C)c2ccccc12)C(=O)N[C@@H](CCCNC(=N)N(C)C)C(=O)NCC(=O)N[C@@H](Cc1ccc(F)c(Cl)c1)C(=O)N[C@H](C(N)=O)CSCCC3=O
resultOperator: =
valueReported: 1.53
--
compoundStructureString: CC(=O)N[C@H]1CSCCC(=O)N2CN3CN(C2)C(=O)CCSC[C@@H](NC(=O)[C@H](CC(N)=O)NC(=O)[C@H](CCC(=O)O)NC(=O)[C@H](CC(C)C)NC(=O)[C@H](Cc2c[nH]c4ccccc24)NC(=O)[C@H](Cc2c[nH]cn2)NC1=O)C(=O)N[C@@H](Cc1c[nH]c2ccccc12)C(=O)N[C@@H](CCCNC(=N)N)C(=O)NCC(=O)N[C@@H](Cc1ccccc1)C(=O)N[C@H](C(N)=O)CSCCC3=O
resultOperator: <
valueReported: 0.0833
--
compoundStructureString: CC(=O)N[C@H]1CSCCC(=O)N2CN3CN(C2)C(=O)CCSC[C@H](NC(=O)[C@H](CC(=O)O)NC(=O)[C@H](CCC(=O)O)NC(=O)[C@H](CC(C)C)NC(=O)[C@H](Cc2c[nH]c4ccccc24)NC(=O)[C@H](CCC(N)=O)NC1=O)C(=O)N[C@@H](Cc1c[nH]c2ccccc12)C(=O)N[C@@H](CCCNC(=N)N)C(=O)NCC(=O)N[C@@H](Cc1ccc(F)cc1)C(=O)N[C@H](C(=O)N[C@@H](C)C(N)=O)CSCCC3=O
resultOperator: =
valueReported: 2.4

====

assay: in vivo; details: Wistar Han, rat, at 0.6 to 2 µmol/kg

compoundStructureString: CC(=O)N[C@H]1CSCCC(=O)N2CN3CN(C2)C(=O)CCSC[C@H](NC(=O)[C@H](CC(=O)O)NC(=O)[C@H](CCC(N)=O)NC(=O)[C@H](CC(C)(C)C)NC(=O)[C@H](Cc2cn(C)c4ccccc24)NC(=O)[C@H](CCC(N)=O)NC1=O)C(=O)N[C@@H](Cc1cn(C)c2ccccc12)C(=O)N[C@@H](CCCNC(=N)N(C)C)C(=O)NCC(=O)N[C@@H](Cc1ccc(F)c(Cl)c1)C(=O)N[C@H](C(N)=O)CSCCC3=O
bioavailability (%): 22.5

====

assay: in vitro; settings: human, lung S9 fraction

compoundStructureString: CC(=O)N[C@H]1CSCCC(=O)N2CN3CN(C2)C(=O)CCSC[C@@H](NC(=O)[C@H](CC(N)=O)NC(=O)[C@H](CCC(=O)O)NC(=O)[C@H](CC(C)C)NC(=O)[C@H](Cc2c[nH]c4ccccc24)NC(=O)[C@H](Cc2c[nH]cn2)NC1=O)C(=O)N[C@@H](Cc1c[nH]c2ccccc12)C(=O)N[C@@H](CCCNC(=N)N)C(=O)NCC(=O)N[C@@H](Cc1ccccc1)C(=O)N[C@H](C(N)=O)CSCCC3=O
half-life: < 5 min

====

# bioavailability values compiled below
assay: in vivo; conditions: Wistar Han, rat, at 0.6 to 2 µmol/kg
propertyLabel: bioavailability (%)

compound: CC(=O)N[C@H]1CSCCC(=O)N2CN3CN(C2)C(=O)CCSC[C@H](NC(=O)[C@H](CC(=O)O)NC(=O)[C@H](CCC(N)=O)NC(=O)[C@H](CC(C)(C)C)NC(=O)[C@H](Cc2cccc4ccccc24)NC(=O)[C@H](C)N(C)C1=O)C(=O)N[C@@H](Cc1cn(C)c2ccccc12)C(=O)N[C@@H](CCCNC(=N)N(C)C)C(=O)NCC(=O)N[C@@H](Cc1ccc(F)cc1)C(=O)N[C@H](C(=O)N[C@@H](C)C(N)=O)CSCCC3=O
unitAnnotation: %
valueReported: 23

compound: CC(=O)N[C@H]1CSCCC(=O)N2CN3CN(C2)C(=O)CCSC[C@H](NC(=O)[C@H](CC(=O)O)NC(=O)[C@H](CCC(=O)O)NC(=O)[C@H](CC(C)(C)C)NC(=O)C(Cc2cn(C)c4ccccc24)NC(=O)[C@H](CCC(N)=O)NC1=O)C(=O)N[C@@H](Cc1cn(C)c2ccccc12)C(=O)N[C@@H](CCCNC(=N)N(C)C)C(=O)NCC(=O)N[C@@H](Cc1ccc(F)cc1)C(=O)N[C@H](C(N)=O)CSCCC3=O (some centres undefined)
unitAnnotation: %
valueReported: 24.7

compound: CC(=O)N[C@H]1CSCCC(=O)N2CN3CN(C2)C(=O)CCSC[C@H](NC(=O)[C@H](CC(N)=O)NC(=O)[C@H](CCC(=O)O)NC(=O)[C@H](CC(C)C)NC(=O)[C@H](Cc2c[nH]c4ccccc24)NC(=O)[C@H](Cc2c[nH]cn2)NC1=O)C(=O)N[C@@H](Cc1c[nH]c2ccccc12)C(=O)N[C@@H](CCCNC(=N)N)C(=O)NCC(=O)N[C@@H](Cc1ccccc1)C(=O)N[C@H](C(N)=O)CSCCC3=O
unitAnnotation: %
valueReported: 33.9

compound: CC(=O)N[C@H]1CSCCC(=O)N2CN3CN(C2)C(=O)CCSC[C@@H]2NC(=O)[C@H](CC(=O)O)NC(=O)[C@H](CCC(=O)O)NC(=O)[C@H](CC(C)C)NC(=O)[C@H](CC/C=C/CC[C@H](NC(=O)[C@H](Cc4c[nH]c5ccccc45)NC2=O)C(=O)NCC(=O)N[C@@H](Cc2ccc(F)cc2)C(=O)N[C@H](C(N)=O)CSCCC3=O)NC(=O)[C@H](CCC(N)=O)NC1=O
unitAnnotation: %
valueReported: 5.9

Ref: ChEMBL document CHEMBL5537198
